test system: MDA-MB-231; experiment: NCI tumour cell line growth inhibition, 48 h
Active and inactive are the calls of the source. Cut-off read from the data, not from the text of the source: active = GI50 up to about 1.1 µM and inactive = higher.
In this section, each of the molecules is paired with its reported GI50.

Solved cases (3 shown):
Cn1c(-c2c(C3=CC(=O)N(c4ccccc4)C3=O)c3ccccc3n2C)cc2ccccc21    > 100 µM (inactive)
O=S(=O)(O)c1cc(Nc2ccnc3ccccc23)c2c(S(=O)(=O)O)cc(S(=O)(=O)O)cc2c1    > 100 µM (inactive)
CC(=O)O[C@@H]1C[C@]2(C(=O)c3ccccc3)C(=O)C(=O)S[C@]12c1ccccc1    58.1 µM (inactive)

Task: # return recorded GI50 for entry `Cc1c2n(c3ccccc13)S(=O)(=O)c1ccccc1-2`
Output: 17.8 µM (inactive)

Task: # return recorded GI50 for entry Cc1cc2c(c(/C=N/Cc3ccccc3)c1)OC1(C=C2)Oc2ccccc2C(=O)N1C (centres undefined)
Output: 27.5 µM (inactive)

Task: # return recorded GI50 for entry `CC(C)c1c(O[Si](C(C)C)(C(C)C)C(C)C)cc2c(c1O)CC[C@H]1C(C)(C)CCC[C@]21C`
Output: > 100 µM (inactive)
